These entries and their values trace back to patent US20070020327A1.

# Test system: HLA-A*0202 (human)
# Measurement description: competitive inhibition of 125I-labelled standard peptide binding to purified HLA, gel filtration
Reported metric: binding affinity ratio (ratio to standard peptide)
Answer using only a numeral; do not append any unit.

Worked cases, answers included:
KITDVVKV (modifications not checked) [KITDVVKV (Kallikrein, position 131)] :: 0.0002
ITDVVKVL (modifications not checked) [ITDVVKVL (Kallikrein, position 132)] :: 0.001
ITDVVKVLGL (modifications not checked) [… (Kallikrein, position 132)] :: 0.0084

Okay, next one:
-- ask Requested field: binding affinity ratio (ratio to standard peptide). Item: ITSWGSEPCA (modifications not checked) [… (PSA, position 222)]
-- reply 0.0036
